Assignment: determine reported pIC50 for the given binders.
- System: T1, human Protein S (human, UniProt P07225 42-676)
- T1 construct: Called 'full length Protein S' / 'human full-length Protein S'; It was coated on plates (ELISA), Eu-labeled (LANCE) or immobilized on a chip (Biacore); also called PS; full length Protein S
- T1 sequence: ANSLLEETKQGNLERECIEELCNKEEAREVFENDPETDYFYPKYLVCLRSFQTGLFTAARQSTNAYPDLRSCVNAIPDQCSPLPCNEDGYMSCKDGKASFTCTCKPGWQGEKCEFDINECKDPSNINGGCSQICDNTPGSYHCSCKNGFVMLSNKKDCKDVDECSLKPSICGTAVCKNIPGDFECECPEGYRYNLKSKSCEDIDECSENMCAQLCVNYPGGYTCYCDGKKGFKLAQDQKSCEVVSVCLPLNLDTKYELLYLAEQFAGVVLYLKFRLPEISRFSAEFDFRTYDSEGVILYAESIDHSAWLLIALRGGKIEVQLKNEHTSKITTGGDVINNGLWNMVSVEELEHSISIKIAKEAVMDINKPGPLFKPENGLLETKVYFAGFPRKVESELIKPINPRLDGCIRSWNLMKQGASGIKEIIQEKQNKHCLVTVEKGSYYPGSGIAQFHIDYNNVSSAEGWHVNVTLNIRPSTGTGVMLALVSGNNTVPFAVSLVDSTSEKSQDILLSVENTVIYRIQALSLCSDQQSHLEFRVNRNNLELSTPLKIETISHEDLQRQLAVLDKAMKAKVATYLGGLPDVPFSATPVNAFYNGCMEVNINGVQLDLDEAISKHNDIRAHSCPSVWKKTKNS
- Assay remarks: LANCE TR-FRET competition; Eu-labeled Protein S; competitor tracer JBS0684
Non-standard residues stand in square brackets, D forms with d. Tle = CC(C)(C)[C@H](N)C(=O)O
Field pIC50 (float): negative decimal logarithm of the concentration in molar.

Prompt: Specify reported pIC50 for the binder shown: Ac-YGLVSAGWYDYNFDTYREFT-NH2 [JBS3190]
Response: 8.80

Prompt: Specify reported pIC50 for the binder shown: Ac-TGL[Tle]SAGWYDYNFDHYMEFT-NH2 [JBS3203]
Response: 8.74

Prompt: Specify reported pIC50 for the binder shown: Ac-TGLVSAGWYDYNFDTYTEFT-NH2 [JBS3188]
Response: 8.54

Prompt: Specify reported pIC50 for the binder shown: Ac-YGLVSAGWYDYNFDVYREFT-NH2 [JBS3191]
Response: 8.80

Prompt: Specify reported pIC50 for the binder shown: Ac-TGLVSAGWYDYNNDVYREFT-NH2 [JBS3195]
Response: 8.70

Prompt: Specify reported pIC50 for the binder shown: Ac-TGLVSAGWYDYNFDHYREFT-NH2 (also called parent peptide JBS2572) [JBS2572]
Response: 8.01

Prompt: Specify reported pIC50 for the binder shown: Ac-YGLVEAGWYDYNNDTYMEFT-NH2 [JBS3201]
Response: 8.72

Prompt: Specify reported pIC50 for the binder shown: Ac-YGLVSAGWYDYNFDHYMEFT-NH2 [JBS3196]
Response: 8.66

Source listed as patent US20150246947A1.
